- protocol notes: 28-day repeat-dose toxicity study, toxicokinetics of AMXT 1501 dicaprate
- Type: in vivo, beagle dogs
- measurement conditions: both sexes, beagle, dog, plasma, po, 8 mg/kg/day, 8 mg/kg/day PO, DFMO 50 mg/kg/day, Day 28, M+F combined; read-out: t1/2 Mean (converted)
- Experimental: AMXT 1501 PK parameters were calculated for all AMXT 1501 dicaprate-dosed animals for the first dose (Day 1) and last dose (Day 28).
test readout: half-life (h)
Provide only the numeric value, understood in h.

// sample CCCCCCCCCCCCCCCC(=O)NCCCC[C@@H](N)C(=O)NCCCNCCCCNCCCN [AMXT 1501 dicaprate] , its half-life was 18

Recorded values, source patent US12364709B2.
